Give IC50 at 72 h for every item shown.
Experiment Notes: Cytotoxicity against African green monkey Vero cells assessed as inhibition of cell growth incubated for 72 hrs by MTT assay
Assay type: toxicity, cell-based
Reported Conditions: African green monkey (Chlorocebus sabaeus)
Express the reported value numerically, then name its unit.

Smiles Entry | Result
CCCCCC/C=C\CCCCCCC[C@H]1CC=CC(=O)O1 | 21.2 µM
CCCCCCCCCCCCCCC[C@H]1CC=CC(=O)O1 | 12.2 µM
CCCCCCCCCCCCCCC[C@@H]1OC(=O)C=C[C@@H]1O | 3.7 µM

Field: next compound
Inquiry: Which value of IC50 at 72 h has been reported for CCCCCCCCCCCCCCC[C@@H]1C[C@@H]2C[C@@H](CC(=O)O2)O1 in the records?
Reply text: 39.1 µM

* * *

Experiment Notes: Cytotoxicity against human MMNK-1 cells assessed as inhibition of cell growth incubated for 48 hrs by MTT assay
Assay type: toxicity, cell-based
Reported Conditions: MMNK-1 cells
Field: IC50 at 48 h. Provide a value for each of the compounds that follow.
One number for each entry, in µM.

Smiles Entry | Unit Name | IC50 at 48 h
CCCCCCCCCCCCCCC[C@H]1CC=CC(=O)O1 | µM | 39.3
CCCCCCCCCCCCCCC[C@@H]1OC(=O)C=C[C@@H]1O | µM | 57.4

Now, please, on to the next compound.
Inquiry: Which value of IC50 at 48 h has been reported for CCCCCC/C=C\CCCCCCC[C@H]1CC=CC(=O)O1 in the records?
Reply text: 52.9

* * *

System: A549
Experiment Notes: Cytotoxicity against human A549 cells assessed as inhibition of cell growth incubated for 72 hrs by MTT assay
Format: functional, cell-based
Reported Conditions: A549, 72 h
Property Name: pIC50
Numbers only, as −log10 of the molar value.

Answered examples (3):
Smiles Entry | Assayed Target | pIC50
CCCCCCCCCCCCCCC[C@@H]1C[C@@H]2C[C@@H](CC(=O)O2)O1 | A549 | 4.41
CCCCCCCCCCCCCCC[C@H]1CC=CC(=O)O1 | A549 | 4.91
CCCCCC/C=C\CCCCCCC[C@H]1CC=CC(=O)O1 | A549 | 4.77

Then this molecule:
Inquiry: Using the record for CCCCCCCCCCCCCCC[C@@H]1OC(=O)C=C[C@@H]1O , report its pIC50.
Reply text: 5.43
